Just for reference, patent US7704995B2 is where these values come from.

target.entity: Chk2 (Homo sapiens, UniProt O96017)
Sequence (O96017 whole entry): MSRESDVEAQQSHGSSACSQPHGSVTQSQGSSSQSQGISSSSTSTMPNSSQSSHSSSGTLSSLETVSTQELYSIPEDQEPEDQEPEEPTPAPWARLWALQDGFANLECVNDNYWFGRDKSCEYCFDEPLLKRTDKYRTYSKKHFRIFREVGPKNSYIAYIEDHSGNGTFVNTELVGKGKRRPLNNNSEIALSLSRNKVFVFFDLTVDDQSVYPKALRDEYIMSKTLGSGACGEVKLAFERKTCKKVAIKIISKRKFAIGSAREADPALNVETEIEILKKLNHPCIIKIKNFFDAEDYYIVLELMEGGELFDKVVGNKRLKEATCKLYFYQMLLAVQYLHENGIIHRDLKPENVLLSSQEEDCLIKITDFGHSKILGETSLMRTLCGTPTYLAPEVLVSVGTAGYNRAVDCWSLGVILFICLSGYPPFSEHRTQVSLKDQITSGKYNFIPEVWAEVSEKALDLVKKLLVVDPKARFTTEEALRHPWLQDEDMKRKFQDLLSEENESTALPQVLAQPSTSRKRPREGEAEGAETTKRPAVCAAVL
measured.parameter: IC50

> print(dat)
                                   compound  measured.parameter  reported
1  NC(=O)c1nc(-c2cccc3ccccc23)cnc1N [Example 2]                IC50   < 50 nM

* * *

target.entity: Chk1 (Homo sapiens, UniProt O14757)
Construct: purchased Upstate Biotechnology
Sequence (O14757 1-476): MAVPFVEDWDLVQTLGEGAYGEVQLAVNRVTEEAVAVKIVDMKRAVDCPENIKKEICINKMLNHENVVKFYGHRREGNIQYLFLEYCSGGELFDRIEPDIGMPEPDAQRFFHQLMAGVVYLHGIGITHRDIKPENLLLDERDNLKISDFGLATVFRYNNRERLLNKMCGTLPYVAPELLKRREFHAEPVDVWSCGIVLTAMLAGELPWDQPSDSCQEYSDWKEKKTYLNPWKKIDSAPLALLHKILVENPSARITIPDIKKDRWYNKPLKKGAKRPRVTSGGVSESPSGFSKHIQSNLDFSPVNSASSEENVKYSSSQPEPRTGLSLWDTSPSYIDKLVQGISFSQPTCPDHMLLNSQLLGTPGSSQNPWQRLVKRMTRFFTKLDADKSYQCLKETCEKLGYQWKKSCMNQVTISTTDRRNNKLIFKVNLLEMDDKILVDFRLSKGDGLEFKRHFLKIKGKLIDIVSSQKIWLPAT
assay.method.text: Chk1 kinase assay: incorporation of γ-33P ATP into immobilized myelin basic protein
Format: biochemical
cond: Table 11; Chk1 only; read-out: Chk1 IC50
pIC50: −log10 of the molar value.
Listing: pIC50 of selected molecules
measured.parameter: pIC50

> print(dat)
                                   molecule      reported
1  N=C(NN1CCCCCC1)c1nc(-c2cccc(C(=O)NCc3ccccc3)c2)cnc1N  5.00 to 6.00
2  CCNC(=O)c1nc(-c2cccc(CN[C@H]3CCc4ccccc43)c2)cnc1N  6.00 to 7.30
3  C/C(=N\NCCO)c1nc(-c2cccc(C(=O)NCc3ccccc3)c2)cnc1N  6.00 to 7.30
4  NC(=O)c1nc(-c2cccc(CN[C@H]3CCc4ccccc43)c2)cnc1N  6.00 to 7.30
5  Nc1ncc(-c2cccc(C(=O)NCc3ccccc3)c2)nc1C(=O)NC1CCNC1 (centres unmarked)  6.00 to 7.30
6  CNC(=O)c1nc(-c2cccc(CNC3CCc4c(OCCN5CCOCC5)cccc43)c2)cnc1N (centres unmarked)  6.00 to 7.30
7  CNC(=O)c1nc(-c2cccc(CNC3CCc4c(Cl)cc(Cl)cc43)c2)cnc1N (centres unmarked)  6.00 to 7.30
8  Nc1ncc(-c2cccc(C(=O)NCc3ccccc3)c2)nc1CN1CCOCC1        ≤ 5.00

* * *

Listing: IC50 of selected compounds
target.entity: Chk1 (Homo sapiens, UniProt O14757)
Construct: purchased Upstate Biotechnology
assay.method.text: Chk1 kinase assay: incorporation of γ-33P ATP into immobilized myelin basic protein
Type: biochemical
cond: read-out: Chk1 IC50
measured.parameter: IC50

> print(dat)
                               smiles.input      reported
1  CC[C@H](NC(=O)c1cccc(-c2cnc(N)c(C(=O)NC)n2)c1)c1ccccc1    1 to 10 µM
2  CNC(=O)c1nc(-c2cccc(C(=O)NCCN3CCN(Cc4ccccc4)CC3)c2)cnc1N  0.05 to 1 µM
3  CNC(=O)c1nc(-c2cccc(OCCN3CCOCC3)c2)cnc1N    1 to 10 µM
4  CNC(=O)c1nc(-c2cccc(C(=O)NCc3ccc(F)cc3Cl)c2)cnc1N  0.05 to 1 µM
5  CNC(=O)c1nc(-c2cccc(C(=O)NCc3ccc(-c4cccnc4)cc3)c2)cnc1N  0.05 to 1 µM
6  CNC(=O)c1nc(-c2cccc(C(=O)NCCc3ccc(F)cc3)c2)cnc1N  0.05 to 1 µM
7  CNC(=O)c1nc(-c2cccc(CNCc3cccc(-c4ccccc4)c3)c2)cnc1N  0.05 to 1 µM
8  CNC(=O)c1nc(-c2cccc(CNCc3ccc4c(c3)OCCO4)c2)cnc1N  0.05 to 1 µM

* * *

target.entity: Chk1 (Homo sapiens)
Construct: purchased Upstate Biotechnology
assay.method.text: Chk1 kinase assay: incorporation of γ-33P ATP into immobilized myelin basic protein
Type: biochemical
cond: Table 11; Chk1 only; read-out: Chk1 IC50
measured.parameter: IC50

> print(dat)
                                   molecule  measured.parameter      reported
1  CNNC(=N)c1nc(-c2cccc(C(=O)N[C@H]3CCc4ccccc43)c2)cnc1N                IC50    1 to 10 µM
2  CCNC(=O)c1nc(-c2cccc(CNC3CCc4cc(F)cc(F)c43)c2)cnc1N (centres unmarked)                IC50  0.05 to 1 µM
3  NCCCNC(=O)c1nc(-c2cccc(C(=O)NCc3ccccc3)c2)cnc1N                IC50  0.05 to 1 µM
4  Nc1ncc(-c2cccc(C(=O)N[C@@H]3c4ccccc4C[C@@H]3O)c2)nc1C(=O)NC[C@@H]1CCNC1                IC50     < 0.05 µM
5  C/C(=N\Nc1ccc(C(F)(F)F)cc1)c1nc(-c2cccc(C(=O)NCc3ccccc3)c2)cnc1N                IC50       ≥ 10 µM
6  Nc1ncc(-c2cccc(C(=O)NCc3ccccc3)c2)nc1C(=O)N[C@H]1CCN(C2CCNCC2)C1                IC50    1 to 10 µM
7  CNC(=O)c1nc(-c2cccc(CNC(CN3CCOCC3)c3ccccc3)c2)cnc1N (centres unmarked)                IC50    1 to 10 µM
8  Nc1ncc(-c2cccc(CNC3CCc4ccccc43)c2)nc1C(=O)NCc1ccc2ccccc2c1 (centres unmarked)                IC50       ≥ 10 µM

* * *

Listing: IC50 of selected compounds
target.entity: Chk1 (Homo sapiens)
Construct: purchased Upstate Biotechnology
assay.method.text: Chk1 kinase assay: incorporation of γ-33P ATP into immobilized myelin basic protein
Type: biochemical
cond: read-out: Chk1 IC50
measured.parameter: IC50

> print(dat)
                                   compound        target.entity      reported
1  CCNC(=O)c1nc(-c2cccc(C(=O)OC)c2)cnc1N [Example 242]  Chk1 (Homo sapiens)    1 to 10 µM
2  CNC(=O)c1nc(-c2cccc(C(=O)N[C@@H]3CCN(Cc4ccccc4)C3)c2)cnc1NCc1ccccc1 [Example 363]  Chk1 (Homo sapiens)  0.05 to 1 µM
3  CNC(=O)c1nc(-c2cccc(NC(=O)CCc3ccccc3)c2)cnc1N [Example 159]  Chk1 (Homo sapiens)  0.05 to 1 µM
4  CNC(=O)c1nc(-c2cccc(CNCc3ccc(Cl)cc3F)c2)cnc1N [Example 425]  Chk1 (Homo sapiens)  0.05 to 1 µM
5  CNC(=O)c1nc(-c2cccc(NC(=O)Nc3ccc(OC)cc3)c2)cnc1N [Example 90]  Chk1 (Homo sapiens)  0.05 to 1 µM
6  CNC(=O)c1nc(-c2cccc(NC(=O)Cc3ccc(Cl)c(Cl)c3)c2)cnc1N [Example 210]  Chk1 (Homo sapiens)  0.05 to 1 µM
7  CNC(=O)c1nc(-c2cccc(C(=O)NCc3ccccc3N)c2)cnc1N [Example 231]  Chk1 (Homo sapiens)  0.05 to 1 µM
8  CCOC(=O)N1CCN(CCOc2cccc(-c3cnc(N)c(C(=O)NC)n3)c2)CC1 [Example 195]  Chk1 (Homo sapiens)    1 to 10 µM

* * *

target.entity: Chk1 (Homo sapiens, UniProt O14757)
Construct: purchased Upstate Biotechnology
assay.method.text: Chk1 kinase assay: incorporation of γ-33P ATP into immobilized myelin basic protein
Type: biochemical
cond: read-out: Chk1 IC50
pIC50: −log10 of the molar value.
Listing: pIC50 of selected compounds
measured.parameter: pIC50

> print(dat)
                                   compound      reported
1  CNC(=O)c1nc(-c2cccc(C(=O)NCc3c(OC)cc(OC)cc3OC)c2)cnc1N [Example 258]  6.00 to 7.30
2  CNC(=O)c1nc(-c2cccc(C(=O)NCc3ccc(S(C)(=O)=O)cc3)c2)cnc1N [Example 255]  6.00 to 7.30
3  CNC(=O)c1nc(-c2cccc(C(=O)NCc3cc(C)ccc3C)c2)cnc1N [Example 261]  6.00 to 7.30
4  CNC(=O)c1nc(-c2cccc(CNC(=O)c3cc4ccccc4[nH]3)c2)cnc1N [Example 334]  6.00 to 7.30
5  CNC(=O)c1nc(-c2cccc(OCCN3CCN(c4ccccc4)CC3)c2)cnc1N [Example 181]  6.00 to 7.30
6  CNC(=O)c1nc(-c2cccc(C(=O)NCC3CCN(Cc4ccccc4)CC3)c2)cnc1N [Example 200]        ≤ 5.00
7  CNC(=O)c1nc(-c2cccc(CNCc3cc(Cl)cc(Cl)c3)c2)cnc1N [Example 409]        > 7.30
